From: patent US20090137554A1

Molecular target: Gal4/hFXR fusion protein (Homo sapiens, UniProt Q96RI1)
Sequence (Q96RI1 262-486 limits assumed): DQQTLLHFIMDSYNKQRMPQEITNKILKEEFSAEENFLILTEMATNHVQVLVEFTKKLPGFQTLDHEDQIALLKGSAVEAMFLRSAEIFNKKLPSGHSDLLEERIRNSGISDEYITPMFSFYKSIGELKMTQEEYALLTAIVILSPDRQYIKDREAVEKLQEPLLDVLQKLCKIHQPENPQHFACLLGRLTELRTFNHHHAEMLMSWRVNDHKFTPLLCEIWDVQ
Assay: Gal4/hFXR fusion protein agonist activity in human 293 cells (luciferase reporter)
Details: Human 293 stable clone 2 expressing Gal4/hFXR, 24 hours incubation
pEC50: −log10 of the molar value.
Below, each entry is listed with its recorded pEC50.
property label: pEC50

>>> numeric_value("CC(C)OC(=O)C1=CN(C(=O)c2cccs2)CC(C)(C)c2cc(C#N)[nH]c21")
7.66
>>> numeric_value("CC(C)OC(=O)C1=CN(C(=O)c2ccc(F)c(F)c2)CC2(CCOCC2)c2cc(C#N)[nH]c21")
7.07
>>> numeric_value("CC(C)OC(=O)C1=CN(C(=O)c2ccc(F)c(F)c2)CC(C)(C)c2cc(C#N)[nH]c21")
8.28
>>> numeric_value("CC(C)OC(=O)C1=CN(C(=O)C2CCOCC2)CC(C)(C)c2cc(C#N)[nH]c21")
8.05
>>> numeric_value("CC(C)OC(=O)C1=CN(C(=O)c2cccc(C(F)(F)F)c2)CC(C)(C)c2cc(C#N)[nH]c21")
8.10
